Here the recorded % inhibition Apol 90' is given for each entry.
- target.system: P. falciparum apicoplast DNA polymerase (Pf-apPOL) (Plasmodium falciparum)
- Sequence (Q8ILY1 entry or part of it): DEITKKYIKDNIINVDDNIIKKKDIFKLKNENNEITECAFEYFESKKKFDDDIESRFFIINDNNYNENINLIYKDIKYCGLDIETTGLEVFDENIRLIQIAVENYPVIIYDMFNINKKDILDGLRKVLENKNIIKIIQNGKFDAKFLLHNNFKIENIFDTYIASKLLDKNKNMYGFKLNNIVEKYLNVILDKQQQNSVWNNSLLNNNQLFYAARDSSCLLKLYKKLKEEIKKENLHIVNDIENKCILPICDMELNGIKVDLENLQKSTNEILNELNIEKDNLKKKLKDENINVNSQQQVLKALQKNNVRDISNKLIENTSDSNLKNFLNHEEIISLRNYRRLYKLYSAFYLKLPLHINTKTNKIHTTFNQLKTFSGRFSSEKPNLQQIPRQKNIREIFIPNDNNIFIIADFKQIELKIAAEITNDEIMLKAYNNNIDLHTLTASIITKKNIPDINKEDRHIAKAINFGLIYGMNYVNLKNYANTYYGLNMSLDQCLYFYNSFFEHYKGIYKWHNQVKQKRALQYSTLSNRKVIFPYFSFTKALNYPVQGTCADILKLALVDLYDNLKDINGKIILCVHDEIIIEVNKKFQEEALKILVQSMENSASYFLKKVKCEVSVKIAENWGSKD
- protocol.notes: Fluorescence-based high-throughput DNA polymerase assay (molecular beacon), primary screen and dose-response
- Format: biochemical
- experimental.conditions: DRC-1; 90'; concentration 5
measurement.type: % inhibition Apol 90' (%)

INSERT INTO measurements (compound, measurement_type, unit_of_measure, reported_result) VALUES
  ('CCCCSc1nnc2c(n1)OC(c1ccc([N+](=O)[O-])o1)Nc1ccccc1-2 (stereo not drawn)', '% inhibition Apol 90''', '%', 15.8932),
  ('O=C(Nc1cccc(C(=O)Nc2ccc(S(=O)(=O)[O-])c3cc(S(=O)(=O)[O-])cc(S(=O)(=O)[O-])c23)c1)Nc1cccc(C(=O)Nc2ccc(S(=O)(=O)[O-])c3cc(S(=O)(=O)[O-])cc(S(=O)(=O)[O-])c23)c1.[Na+].[Na+].[Na+].[Na+].[Na+].[Na+]', '% inhibition Apol 90''', '%', 6.063),
  ('COc1ccc(-c2cc(=O)c3cc(O)ccc3o2)cc1OC', '% inhibition Apol 90''', '%', 7.049),
  ('CCCCCCCCCCCCCCCCCC(=O)CCN(C)C', '% inhibition Apol 90''', '%', 4.9355),
  ('O=C(NNC(=O)c1ccc(Cl)cc1)C(=O)NNC(=O)c1ccc(Cl)cc1', '% inhibition Apol 90''', '%', 28.7698),
  ('Oc1ccc(N=Nc2ccccc2)c(O)c1', '% inhibition Apol 90''', '%', 0.4517),
  ('NC(=O)c1cc[n+](CC2=C(C(=O)[O-])N3C(=O)[C@@H](NC(=O)[C@@H](c4ccccc4)S(=O)(=O)[O-])[C@H]3SC2)cc1.[Na+]', '% inhibition Apol 90''', '%', 17.2714),
  ('O=C(Nc1ccc2c(c1)Cc1cc(NC(=O)c3ccco3)ccc1-2)c1ccco1', '% inhibition Apol 90''', '%', 1.199),
  ('Cc1nc(/N=N/c2ccc(C(=O)[O-])cc2)c(COP(=O)([O-])[O-])c(C=O)c1O.[Na+].[Na+].[Na+]', '% inhibition Apol 90''', '%', 43.9893),
  ('O=c1cc(-c2ccccc2)oc2c(O)c(O)ccc12', '% inhibition Apol 90''', '%', 3.595),
  ('Nc1c(S(=O)(=O)O)cc(Nc2ccccc2)c2c1C(=O)c1ccccc1C2=O', '% inhibition Apol 90''', '%', 18.228),
  ('COc1ccc(-c2c(C(F)(F)F)nn3c(=O)cc(-c4cccc([N+](=O)[O-])c4)[nH]c23)cc1', '% inhibition Apol 90''', '%', 24.4098),
  ('Cc1ccc(C)n1-c1ccc(C(=O)NNC(=O)c2ccc3nccnc3c2)cc1', '% inhibition Apol 90''', '%', -1.933),
  ('COc1ccc2c(c1)C(c1ccccc1OC)CC(=O)O2 (stereo not drawn)', '% inhibition Apol 90''', '%', -2.39),
  ('CN(C)S(=O)(=O)Oc1ccc(-c2noc(-c3ccc(Oc4cc(Cl)cc(Cl)c4)o3)n2)cc1', '% inhibition Apol 90''', '%', 7.942);
